- subjectOfTest: UniProtKB P04054
- Sequence (P04054 23-148): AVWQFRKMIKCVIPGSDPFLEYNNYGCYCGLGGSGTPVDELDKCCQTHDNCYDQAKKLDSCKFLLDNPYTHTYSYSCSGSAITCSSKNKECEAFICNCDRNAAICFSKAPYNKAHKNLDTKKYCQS
- testSummary: Inhibition test of human secretory phospholipase A2, chromogenic assay, type I enzyme
- Assay type: biochemical
- experimentalContext: recombinant human sPLA2 type I, chromogenic assay, 30 min; read-out: IC50 type I

- compoundStructure: "CC(C)Cc1c(C(=O)C(N)=O)c2c(OCC(=O)O)cccc2n1CC1CCCCC1"
  IC50: "> 700 nM"
- compoundStructure: "Cc1cn2c(CC3CCCCC3)c(CC(C)C)c(C(=O)C(N)=O)c2c(OCC(=O)O)n1"
  IC50: "> 700 nM"
- compoundStructure: "Cc1cn2c(Cc3ccccc3)c(CC(C)C)c(C(=O)C(N)=O)c2c(OCC(=O)O)n1"
  IC50: "> 700 nM"
- compoundStructure: "Cc1cc(OCC(=O)O)c2c(C(=O)C(N)=O)c(CC(C)C)c(Cc3ccccc3)n2n1"
  IC50: "> 700 nM"
- compoundStructure: "CC(C)Cc1c(C(=O)C(N)=O)c2c(OCC(=O)NS(C)(=O)=O)cccc2n1Cc1ccccc1"
  IC50: "> 700 nM"
- compoundStructure: "Cc1cc(OCC(=O)NS(=O)(=O)c2ccccc2)c2c(C(=O)C(N)=O)c(CC(C)C)n(Cc3ccccc3)c2c1"
  IC50: "> 700 nM"
- compoundStructure: "Cc1cc(OCC(=O)NS(C)(=O)=O)c2c(C(=O)C(N)=O)c(CC(C)C)n(Cc3ccccc3)c2c1"
  IC50: "> 700 nM"

----------
- subjectOfTest: human type II enzyme (sPLA2) (Homo sapiens)
- Sequence (P14555 21-144): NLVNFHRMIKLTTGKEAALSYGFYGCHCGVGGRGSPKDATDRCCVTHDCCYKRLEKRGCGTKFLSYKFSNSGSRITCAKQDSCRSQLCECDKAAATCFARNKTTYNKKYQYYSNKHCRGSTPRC
- testSummary: Inhibition test of human secretory phospholipase A2, chromogenic assay, type II enzyme
- Type: biochemical
reportedMetric: IC50

- compoundStructure: "CC(C)Cc1c(C(=O)C(N)=O)c2c(OCC(=O)NS(=O)(=O)c3ccccc3)cccc2n1Cc1ccc(F)cc1"
  reportedMetric: "IC50"
  experimentalValue: "> 1000 nM"

----------
- subjectOfTest: human type X sPLA2 (Homo sapiens, UniProt O15496)
- Construct: made in house; unpurified culture supernatant
- Sequence (O15496 43-165): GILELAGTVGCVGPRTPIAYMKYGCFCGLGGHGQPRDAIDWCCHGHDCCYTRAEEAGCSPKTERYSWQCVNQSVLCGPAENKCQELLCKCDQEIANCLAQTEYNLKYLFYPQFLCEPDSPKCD
- testSummary: Type X sPLA2-induced PGE2 production in human colon carcinoma HT-29 cells
- Format: cell-based
- experimentalContext: compound 10 μM; TNF-α-treated HT-29 cells; 100 nM human type X sPLA2, 3 h; percentage of PGE2 produced by type X sPLA2 (no treatment group = 100)
Attribute: PGE2 production

- compoundStructure: "CC(C)Cc1c(C(=O)C(N)=O)c2c(OCC(=O)O)cccc2n1Cc1ccccc1"
  valueUnits: "%"
  PGE2 production: "−12.7"
- compoundStructure: "CC(C)Cc1c(C(=O)C(N)=O)c2c(OCC(=O)NS(=O)(=O)c3ccccc3)cccc2n1Cc1ccccc1"
  valueUnits: "%"
  PGE2 production: "−6.6"
- compoundStructure: "Cc1cn2c(CCc3ccccc3)c(CC(C)C)c(C(=O)C(N)=O)c2c(OCC(=O)O)n1"
  valueUnits: "%"
  PGE2 production: 35.3
- compoundStructure: "CC(C)Cc1c(C(=O)C(N)=O)c2c(OCC(=O)NS(C)(=O)=O)cccc2n1Cc1ccccc1"
  valueUnits: "%"
  PGE2 production: 9.0
